Numbers sourced from ChEMBL document CHEMBL4130562.

I'd be grateful if you could share measured inhibition at 10 µM for these entries.
Molecular target: CYP2C19 (Homo sapiens)
Sequence (P33261 whole entry): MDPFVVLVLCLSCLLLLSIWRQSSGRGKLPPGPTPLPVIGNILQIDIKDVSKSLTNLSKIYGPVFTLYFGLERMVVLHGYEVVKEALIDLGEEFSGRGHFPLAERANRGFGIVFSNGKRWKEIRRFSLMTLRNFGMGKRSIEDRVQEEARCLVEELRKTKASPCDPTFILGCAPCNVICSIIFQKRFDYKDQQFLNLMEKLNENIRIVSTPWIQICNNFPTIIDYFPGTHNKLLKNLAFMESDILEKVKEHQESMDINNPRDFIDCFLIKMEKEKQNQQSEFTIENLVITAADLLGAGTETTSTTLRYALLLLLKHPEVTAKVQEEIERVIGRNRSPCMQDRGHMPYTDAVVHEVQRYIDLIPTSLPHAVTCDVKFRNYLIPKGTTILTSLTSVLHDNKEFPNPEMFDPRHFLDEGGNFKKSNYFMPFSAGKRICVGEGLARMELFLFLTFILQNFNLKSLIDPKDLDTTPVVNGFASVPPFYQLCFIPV
Assay: Inhibition of CYP2C19 (unknown origin) at 10 uM
Format: ADME

[
  {
    "STRUCTURE_SMILES_STRING": "CC(=O)NC[C@H]1CN(c2ccc(-c3ccc4c(c3)NC(=O)CO4)c(F)c2)C(=O)O1",
    "MEASUREMENT": "20%"
  }
]

# next molecule below
(Q) Supply inhibition at 10 µM measured with CYP2C19 (Homo sapiens) for O=C1COc2ccc(-c3ccc(N4C[C@H](CO)OC4=O)cc3F)cc2N1 .
(A) 29%
